Provide the recorded log2 fold change of degron read counts for the entries that follow.
# tested-target: T1, CRBN, Q96SW2;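 note: pooled lentiviral library of zinc finger degron-EGFP fusions in mCherry-positive Jurkat cells, FACS-sorted after compound exposure, with degron abundance counted by next-generation sequencing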
# T1 chain: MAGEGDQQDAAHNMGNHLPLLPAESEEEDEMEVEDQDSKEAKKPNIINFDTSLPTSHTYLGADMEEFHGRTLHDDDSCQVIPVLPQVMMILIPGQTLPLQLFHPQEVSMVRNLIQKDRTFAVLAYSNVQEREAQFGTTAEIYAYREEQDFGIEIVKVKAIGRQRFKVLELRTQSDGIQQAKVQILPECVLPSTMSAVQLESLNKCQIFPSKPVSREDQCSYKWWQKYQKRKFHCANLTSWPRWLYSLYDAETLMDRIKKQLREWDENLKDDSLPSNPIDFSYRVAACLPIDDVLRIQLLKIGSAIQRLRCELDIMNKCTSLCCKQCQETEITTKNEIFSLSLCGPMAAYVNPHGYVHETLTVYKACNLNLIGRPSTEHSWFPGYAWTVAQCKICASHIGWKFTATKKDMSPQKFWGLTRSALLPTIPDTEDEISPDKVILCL
# run-description: log2 fold change of degron read counts, EGFP-low vs EGFP+ sorted cells (limma voom), compound-induced degradation; higher = more compound-induced degradation of the degron-EGFP fusion; degrons are variants of IKZF1/3 zinc finger 2; compound dose not given here
# test-settings: Jurkat; 18 h; compound: compound 22 (5-morpholino-thalidomide)
The full ranking holds about 8,300 sequences; the median of “log2 fold change of degron read counts, EGFP-low vs EGFP+ sorted cells (limma voom), compound-induced degradation” is about -1.1, and the highest 2% start at about 3.2. This is one part of a sample in which the highest values are shown more often than they occur.

Consider the reported log2 fold change of degron read counts for these sequences:
Tell me the measured log2 fold change of degron read counts of FNCNICGAEFTQKGNLLRHIKL [46F_47N_49N_50I_52G_53A_54E_55F_67L_, Q9UKT9] , please.
-1.22

Tell me the measured log2 fold change of degron read counts of FRCSVCGHLFTQKGNLLRHIKL [46F_47R_49S_50V_52G_53H_54L_55F_67L_, Q9UKT9] , please.
-3.16

Tell me the measured log2 fold change of degron read counts of FWCPICGHTFTQKGNLLRHIKL [46F_47W_49P_50I_52G_53H_54T_55F_67L_, Q9UKT9] , please.
-1.6

Tell me the measured log2 fold change of degron read counts of LECPICGFPCTQKGNLLRHIKL [46L_47E_49P_50I_52G_53F_54P_55C_67L_, Q9UKT9] , please.
-1.77

Tell me the measured log2 fold change of degron read counts of FSCPICGAEFTQKGNLLRHIKL [46F_47S_49P_50I_52G_53A_54E_55F_67L_, Q9UKT9] , please.
1.11

Could you tell me log2 fold change of degron read counts for each of these sequences? They are listed below.
1. FCCPVCGADFTQKGNLLRHIKL [46F_47C_49P_50V_52G_53A_54D_55F_67L_, Q9UKT9]
2. LACNQCGFECTQKGNLLRHIKL [46L_47A_49N_50Q_52G_53F_54E_55C_67L_, Q9UKT9]
3. FKCEICGRRFTQKGNLLRHIKL [46F_47K_49E_50I_52G_53R_54R_55F_67L_, Q9UKT9]
4. LVCEICGFFCTQKGNLLRHIKL [46L_47V_49E_50I_52G_53F_54F_55C_67L_, Q9UKT9]
5. FWCPVCGAFFTQKGNLLRHIKL [46F_47W_49P_50V_52G_53A_54F_55F_67L_, Q9UKT9]

1. 0.509
2. -2.34
3. -3.55
4. 0.388
5. 2.56
